B1: TPR t1 (parent)
chain: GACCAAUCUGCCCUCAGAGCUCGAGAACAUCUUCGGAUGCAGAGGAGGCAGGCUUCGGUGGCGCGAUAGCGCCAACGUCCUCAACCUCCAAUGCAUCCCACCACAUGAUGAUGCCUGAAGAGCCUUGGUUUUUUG

Variants of: B1
TEST NAME: polymerase ribozyme fitness, log enrichment relative to wild type (log ratio); higher = more active; in vitro selection for triplet polymerase activity
PARAMETER MEASURED: polymerase ribozyme fitness (log ratio)

- G44U G135U: -2.86
- C11A A27U C34A C72G C97A G120U G127A U129C: -6
- G113A A118C: -2.55
- C40G A43C A111C A119G: -4.45
- G71U C99G C115U: -7.86
- C49A U96C G120U: -0.575
- A6C C79A: -0.901
- C3U C12G A46C: -0.734
- C13U A66U C70U C72G C88U G120A U126C: -4.41
- A2U U14A G69U C82U A119C G120U: -2.15
- A26U C53U C56G A100C: -5.42
- C13A G61A A66U A121U U129G: -0.637
- G17U A121G: 0.688
- A84U U133G: -0.42
- A6G U87A U92C A95C C114U: -3.66
- A5U C11G A16U G60U U87A A103C: -5.47
- G48U U87G C115G: -0.14
- C79A C101U: -1.4
- A18C C115G A119G: 1.41
- C3U G120C: 0.705
- G42U C56U C72U C85G G110U: -5.53
- A105G C124U: -0.654
